- Tested on: NCI-H522 lung
- TEST_METHOD_NOTES: NCI-60 one-dose screen, 48 h
- DETAILS: 10 µM unless noted
About 83,000 compounds went through this panel and 20% of them were active in at least one assay; those are over-represented in the sample as a whole. Activity calls are given as the source filed them. How the source made its calls: active means growth percent below 10; inactive means the rest.
Outcome field: choose from true = active, false = inactive

[[record]]
compound = "COc1ccc2nc3cc(Cl)ccc3c(Nc3ccc(O)c(CN4CCCC4)c3)c2c1"
category = "true"

[[record]]
compound = "C=C(C)[C@@H]1CC[C@]2(C(=O)NCCNCCNCCN)CC[C@]3(C)[C@H](CC[C@@H]4[C@@]5(C)CC[C@H](O)C(C)(C)[C@@H]5CC[C@]43C)[C@@H]12"
category = "true"

[[record]]
compound = "COCCCNc1nc(NC(=O)c2cc(Br)cc(C(F)(F)F)c2)cc(-c2cccnc2)n1"
category = "false"

[[record]]
compound = "C/C=C/C1OC23CCCCC2C(C#N)(C(=N)O3)C1(C#N)C#N (centres undefined)"
category = "false"

[[record]]
compound = "COc1ccc(NC(=O)Nc2ccc(-c3cccnc3)cc2N2CCC(CO)CC2)cc1"
category = "false"


Problem: Entry `c1coc2occoc=2o1` : call = ?
Solution: false

====

- System: A498 renal
- TEST_METHOD_NOTES: NCI-60 one-dose screen, 48 h
- DETAILS: 10 µM unless noted
The panel holds about 83,000 compounds, 20% with a hit somewhere; the sample as a whole holds those more often. The source made the active and inactive calls. How the source made its calls: active means growth percent below 10; inactive means the rest.
Entry note: the call must match one of active, inactive

Problem: What classification did O=C1/C(=C\c2cn(CC(O)CN3CCCCC3)c3ccccc23)c2ccccc2N1c1c(Cl)cccc1Cl (configuration not stated) end up with in this test?
Solution: active

Problem: Another: `C=C(C)[C@@H]1CC[C@]2(C(=O)OC)CC[C@]3(C)[C@H](CC[C@@H]4[C@@](C)(CCc5nn[nH]n5)[C@H](C(=C)C)CC[C@]43C)[C@@H]12`
Solution: active

Problem: What do we get for `C[C@@H]1C[C@H]2C(=O)O[C@@H](C)[C@H](NC(=O)[C@H](Cc3cc(F)cc(F)c3)NC(=O)Nc3ccc(C4CC4)cc3F)C(=O)N3CCC[C@H]3C(=O)N3CCCC[C@H]3C(=O)N[C@@H](C)C(=O)N2C1` ?
Solution: active

====

- Test system: U251 CNS
- TEST_METHOD_NOTES: NCI-60 one-dose screen, 48 h (100 = growth as untreated, 0 = no growth, -100 = all killed)
- DETAILS: 10 µM unless noted
Compounds without any hit were thinned out: in the full panel of roughly 83,000, 20% have a hit. The source made the active and inactive calls. How the source made its calls: active means growth percent below 10; inactive means the rest.
Reported values of growth for individual entries

Problem: I am curious: what growth value has been reported for CC(C)[N+](C)(C)CC(O)COc1cccc2ccccc12 (configuration not stated) ?
Solution: 101% (inactive)

Problem: // next record `NNC(=O)c1ccc(C(=O)NN)cc1`
Solution: 93.2% (inactive)

Problem: Try this molecule next: CCN(CC)CCCC(C)Nc1ccnc2cc(Cl)c(SCc3ccccc3)cc12 (configuration not stated)
Solution: -54.3% (active)

Problem: Also `CS(=O)(=O)c1cccnn1` , if possible.
Solution: 92.9% (inactive)

Problem: Moving on to `Oc1c(CNCCNCc2cc(Cl)cc(Cc3ccccc3)c2O)cc(Cl)cc1Cc1ccccc1`
Solution: 17% (inactive)

Problem: Quick one: `C#C[C@]1(O)CC[C@H]2[C@@H]3CC=C4c5nc(N)sc5CC[C@]4(C)[C@H]3CC[C@@]21C`
Solution: 38.1% (inactive)

Problem: Subsequent entry: `CCN(CCO)CCC(=O)c1ccc([N+](=O)[O-])cc1`
Solution: 98.1% (inactive)

Problem: Also check `Cc1cc(C)nc(SCC(=O)Nc2cccc(N=Cc3ccccc3O)c2)n1`
Solution: 94.9% (inactive)

Problem: Try this molecule too: `Cc1ccc(N)c(O)c1`
Solution: 92.7% (inactive)

Problem: Next up: `COc1cc(NCc2cn(-c3ccc(C(=O)O)cc3)nc2-c2ccc(C(=O)O)cc2)cc(OC)c1OC`
Solution: 92.2% (inactive)

Problem: Repeat for the following molecule: `O=c1cc(-c2ccccc2)oc2c(O)c(O)ccc12`
Solution: 43.1% (inactive)

Problem: Moving on to the next molecule: `COC(=O)[C@]12CCC(C)(C)C[C@H]1C1=CC[C@@H]3[C@@]4(C)C/C(=C/c5cccnc5)C(=O)C(C)(C)[C@@H]4CC[C@@]3(C)[C@]1(C)CC2`
Solution: -38.2% [100 µM] (active)
